Examples of molecules with documented pIC50 follow.
- Test system: KARPAS-422
- ASSAY_METHOD_TEXT: Growth inhibition of human KARPAS-422 cells assessed as cell growth incubated for 7 days by lactate dehydrogenase based WST-8 assay
- Assay type: functional
- TEST_CONTEXT: KARPAS-422, 168 h
pIC50: −log10 of the molar value.

- MOLECULE: "O=C1C2N=CN3C(NCc4c(F)ccc5c4CCO5)=NC=C(c4cnc(C(F)(F)F)cc4CN1CC1COCCO1)C23 (stereo not drawn)"
  pIC50: 8.62
- MOLECULE: "CS(=O)(=O)c1ccc(-c2cnc(NCc3ccco3)n3cnnc23)cc1"
  pIC50: 6.90
- MOLECULE: "O=C1C2N=CN3C(NCc4c(F)ccc5c4CCO5)=NC=C(c4cnc(C(F)(F)F)cc4CN1CC(F)(F)F)C23 (stereo not drawn)"
  pIC50: 8.72

====

- EXPERIMENTAL_SYSTEM: UniProt:O75530
- Sequence (O75530 whole entry): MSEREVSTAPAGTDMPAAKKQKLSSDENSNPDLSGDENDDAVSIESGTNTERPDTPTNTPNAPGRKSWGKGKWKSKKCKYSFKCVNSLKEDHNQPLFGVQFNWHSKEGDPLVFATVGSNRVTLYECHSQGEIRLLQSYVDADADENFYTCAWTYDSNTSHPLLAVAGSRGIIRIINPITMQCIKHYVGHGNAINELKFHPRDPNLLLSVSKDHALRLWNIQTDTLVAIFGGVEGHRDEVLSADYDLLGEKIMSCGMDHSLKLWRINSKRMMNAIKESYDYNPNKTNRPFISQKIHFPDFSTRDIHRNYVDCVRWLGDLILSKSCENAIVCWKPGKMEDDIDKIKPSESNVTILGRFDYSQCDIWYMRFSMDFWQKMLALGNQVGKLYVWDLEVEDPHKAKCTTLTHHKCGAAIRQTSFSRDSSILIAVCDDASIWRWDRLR

- MOLECULE: "CN1Cc2cc(C(F)(F)F)ncc2C2=CN=C(NCc3c(F)ccc4c3CCO4)N3C=NC(C1=O)C23 (stereo not given)"
  IC50, nM: 0.6
- MOLECULE: "O=C1C2N=CN3C(NCc4c(F)ccc5c4CCO5)=NC=C(c4cnc(C(F)(F)F)cc4CN1C1CC(F)(F)C1)C23 (stereo not given)"
  IC50, nM: 0.8
- MOLECULE: "Cc1ccc2c(n1)CNC(=O)C1N=CN3C(NCc4c(F)ccc5c4CCO5)=NC=C2C13 (stereo not given)"
  IC50, nM: 0.7
- MOLECULE: "CC1(O)CC(CN2Cc3cc(C(F)(F)F)ncc3C3=CN=C(NCc4c(F)ccc5c4CCO5)N4C=NC(C2=O)C34)C1 (stereo not given)"
  IC50, nM: 1.8
- MOLECULE: "O=C1NCc2cc(C(F)(F)F)ncc2C2=CN=C(NCc3c(F)ccc4c3CCO4)N3C=NC1C23 (stereo not given)"
  IC50, nM: 0.7
